Recorded values, source patent US10556936B2.

System: basophils in whole blood from HDM allergic donors
Assay: Basophil Activation Test (BAT)
Assay type: cell-based, human
Details: 100 ng/ml; blood from HDM allergic individuals (n=14)
Entry flag: yes (1) if # of individuals of 14 with positive BAT test reaches 2; no (0) if it does not.

| molecule | label class |
| --- | --- |
| A001: house dust mite protein; SEQ ID NO: 13 (Der f), 14 (Der p); recombinant test protein (protein) KKSPDCDIERPIRECLKDGLLRYSSGQKINQFPDTIQDLNRACEELKKSETCARTFIDTCTESSYEKRSLDSLLDGIQRVMKRLCRSQTKKEKLLENVGCANSVVQDTKQCLKNYRMLVFAANKLDNKNKIMRILCCKSRKVAPCIGEAMKAKGTAVCSAKNIDYFKDVHQNIKQEMTAVVCSDFERDQCENVDVPNISESEYKDQNIFNPLRDLYKKVILG | no (0) |
| Derp1: major house dust mite allergen, group 1, Dermatophagoides pteronyssinus; control (protein, UniProt P08176 99-320, looked up) Peptidase 1: TNACSINGNAPAEIDLRQMRTVTPIRMQGGCGSCWAFSGVAATESAYLAYRNQSLDLAEQELVDCASQHGCHGDTIPRGIEYIQHNGVVQESYYRYVAREQSCRRPNAQRFGISNYCQIYPPNVNKIREALAQTHSAIAVIIGIKDLDAFRHYDGRTIIQRDNGYQPNYHAVNIVGYSNAQGVDYWIVRNSWDTNWGDNGYGYFAANIDLMMIEEYPYVVIL | yes (1) |
| A023: house dust mite protein; SEQ ID NO: 23 (Der f), 24 (Der p) (protein) DPVQQRPTLRGVTVRVGPFVKENNGKFEGFIPDLVQAISEKVGFDYTLYLSPDGRYGNVISDGNVTGMIGEVYNKKADFAAADLTMTEARENYITFTEPFMINQLAALIRREDAEGLNTLEDLAKAQETFPKRKRIVLGTLRNGATNYFLSKSDDPLAKKIYEQIKADDQSVVKSISEGVERVDKQGGYAFIMESASAEHEIANNCKLTMLLDWRNLFPRKYAFALPKDSPYLEHFNNAIKQLNSEGKIAELRRKYWANNCAENKTKDDKN | no (0) |
| A017: house dust mite protein; SEQ ID NO: 21 (Der f), 25 (Der p), 313 (Blo t) (protein) MSSSSGKKYDFSGKVALVTGSSSGIGAAIALQFAQYGAQVTITGRDAAALESVAKRIEAESGHQPLQIVGNLLDQSLPAKLIDGTISKYGRLDFLVNNAGFSTQHRDIHDEKLMEAFDQVYGLNVRAVVQLSQLAATHLEKSKGNIINISSNLSMMPVHIIYSSSKAALDMITKTMAMEFGKKGVRVNSINPGPVATQFMRSLGMPVTFLKENEEFVKELTLLKFVAQPVEIANLASFLASDDARNMTGSIVVNDTGSLLAPRVDFKKLDEIKKK | no (0) |
| A022: house dust mite protein; SEQ ID NO: 19 (Der f), 20 (Der p), 317 (Blo t) (protein) NWQMVWQDEFNGGHLDQNHWEFETGGGGWGNNELEFYTANRSQNVRVENGHLVIDVRVESYGGRDFTSGRIHSKQAWAYGKFEARARLPSGHHLWPAIWMFPRDSKYGPWAASGEIDIMEYRGDVHDKIEGTIHYGGQWPNNIYTGSGPHHFNVDFSKDFHNFAVEWDTKEIRWYMDGNKYFSVNIDRNMWSGKGNNPYNKNGQPFDQPFRWILNVAVGGNFFGPGPYVTPDQARHWQKHTMEIDYVRVYQWR | yes (1) |
| A025: house dust mite protein; SEQ ID NO: 17 (Der f), 18 (Der p) (protein) QSLFVDYNDYSCGSSQNETNELIQEFKIFKKNINGNENFKKINDFIEKARLFRDNAAKQMLEIDQQLLTLNVIQISQRIKLENNKIQCEKLTKFSELLSMQLLAYEVGMFEFAEEIDPNIDFDRKMKNFLDETSRLFNLAEFEKLEKKFRNATSIEKLKNYIDGELVALNDYINEFLKDIIMSEFTVQSRYYLNFSIEDQVQIDSTLMTFSALKILLNDLKDYLEHLDN | no (0) |
| A003: house dust mite protein; SEQ ID NO: 2 (Der f), 3 (Der p), 305 (Blo t) (protein) MAIDGKYQMESSEHFEEFVKEMGLDVDMTNVDLSKTSTMEICKDGDVYHIKSETAGIAHEIKFKVGEEFEDDMNGHKFKNVVTMECDNKMVQKKTSADGGKVVNVVREFTDAGCTVKSTYNTVTWTRVYKRM | no (0) |
